Data credit: patent US4039540A

System: E. coli
Test: in vitro antibacterial activity, two-fold serial dilution in Brain-Heart Infusion Broth (MIC)
Type: cell-based
Settings: Escherichia coli, overnight, anaerobic
We begin with a simple list: items and their reported log10 MIC.
Remember, log10 of MIC, in µg/mL.

CCCNC(=O)c1c(CS(=O)(=O)CCO)[n+]([O-])c2ccccc2[n+]1[O-] [NHPr; SO2 CH2 CH2 OH; H] ... 0.49
CCNC(=O)c1c(CS(=O)(=O)CCCN2CCCCC2)[n+]([O-])c2ccccc2[n+]1[O-] [NHCH2 CH3; drawing 26; H] ... 1.10
CCCNC(=O)c1c(CSCCO)[n+]([O-])c2ccccc2[n+]1[O-] [NHPr; SCH2 CH2 OH; H] ... 1.40
CNC(=O)c1c(CS(=O)(=O)CCCCN(C)C)[n+]([O-])c2ccccc2[n+]1[O-] [NHCH3; SO2 (CH2)4 N(CH3)2; H] ... 1.70
CNC(=O)c1c(CS(=O)(=O)CCOC(C)=O)[n+]([O-])c2ccccc2[n+]1[O-] [NHCH3; SO2 CH2 CH2 OAc; H] ... 0.49

Per the record, CCNC(=O)c1c(CS(=O)(=O)CCCCN(C)C)[n+]([O-])c2ccccc2[n+]1[O-] [NHCH2 CH3; SO2 (CH2)4 N(CH3)2; H] has log10 MIC of 1.70

Per the record, O=C(NCc1ccccc1)c1c(CS(=O)(=O)CCO)[n+]([O-])c2ccccc2[n+]1[O-] [NHCH2 .phi.; SO2 CH2 CH2 OH; H] has log10 MIC of 2.30

Per the record, O=C(NCCO)c1c(CS(=O)(=O)CCO)[n+]([O-])c2ccccc2[n+]1[O-] [NHCH2 CH2 OH; SO2 CH2 CH2 OH; H] has log10 MIC of 2.00

Per the record, CN(C)CCNC(=O)c1c(CS(=O)(=O)CCCN2CCCCC2)[n+]([O-])c2ccccc2[n+]1[O-] [NHCH2 CH2 N(CH3)2; drawing 21; H] has log10 MIC of 2.00
